testedOn: PAR2 (HT-29 cells, SLIGKV activation) (Homo sapiens)
Construct: host or cells: HT-29 cells
Sequence (P55085 26-397): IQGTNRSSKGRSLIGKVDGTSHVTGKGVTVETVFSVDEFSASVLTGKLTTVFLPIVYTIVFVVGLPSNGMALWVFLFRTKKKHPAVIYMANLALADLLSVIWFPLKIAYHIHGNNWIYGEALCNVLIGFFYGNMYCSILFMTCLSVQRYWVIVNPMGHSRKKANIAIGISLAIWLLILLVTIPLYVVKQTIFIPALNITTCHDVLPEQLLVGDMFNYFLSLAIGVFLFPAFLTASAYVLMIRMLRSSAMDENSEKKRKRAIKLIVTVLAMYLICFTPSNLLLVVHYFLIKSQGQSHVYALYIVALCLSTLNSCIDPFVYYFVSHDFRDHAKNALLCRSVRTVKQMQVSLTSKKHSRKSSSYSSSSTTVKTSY
methodNotes: Ca FLIPR TETRA assay, ANTAGONIST mode, stimulation with 8 μM SLIGKV
Assay type: cell-based
recordedConditions: HT-29 cells, antagonist mode, stimulation with 8 μM SLIGKV
Reported IC50 values for the following compounds.
Express it in nM; write the number only.

CC(C)c1cc(-c2ccc(F)cc2)nn2cc(C(=O)N3CCN(C(=O)c4nc[nH]n4)CC3(C)C)nc12 | 5.8
CC(C)(C)c1cc(-c2ccc(F)cc2)nn2cc(C(=O)N3CCN(C(=O)c4n[nH]c(=O)[nH]4)CC3(C)C)nc12 | 3.3
CC(C)(C)c1cc(-c2ccc(Cl)cc2)nn2cc(C(=O)N3CCN(C(=O)[C@H]4CC[C@H](C(=O)O)CC4)CC3(C)C)nc12 | 2.4
CC(C)(C)c1cc(-c2ccc(F)cc2)nn2cc(C(=O)N3CCN(C#N)C(=O)C3(C)C)nc12 | 0.9
Cc1nc(C(=O)N2CCN(C(=O)c3cn4nc(-c5ccc(Cl)c(F)c5)cc(C(C)(C)C)c4n3)C(C)(C)C2)n[nH]1 | 0.1

# value lookup — system PAR2 (HT-29 cells, SLIGKV activation) (Homo sapiens), readout IC50, item CC(C)c1cc(-c2ccc(Cl)cc2)nn2cc(C(=O)N3CCN(C(=O)[C@H]4C[C@@H](O)C4)CC3(C)C)nc12 3.2

What do you get for Cc1cc(-c2cc(C(C)C)c3nc(C(=O)N4CCN(CC(C)(C)O)C(=O)C4(C)C)cn3n2)ccc1F ? 25.5

What do you get for CC(C)(C)c1cc(-c2ccc(N=[N+]=[N-])cc2)nn2cc(C(=O)N3CCNC(=O)C3(C)C)nc12 ? 170

What do you get for Cn1nnc(N2CCN(C(=O)c3cn4nc(-c5ccc(F)cc5)cc(C(C)(C)C)c4n3)C(C)(C)C2=O)n1 ? 0.6

What do you get for Cc1ccc(-c2cc(C(C)(C)C)c3nc(C(=O)N4CCN(C(=O)c5ncccn5)CC4(C)C)cn3n2)cc1F ? 1.7
